Measurement record for Dipeptidyl peptidase 4 (Homo sapiens, UniProt P27487); quantity recorded: IC50.
readout_name: IC50 (nM)

| smiles_notation | observed |
| --- | --- |
| N[C@H]1CN(c2ccc3nnc(C(F)(F)F)n3n2)CC[C@@H]1c1cc(F)c(F)cc1F | 9 |
| N[C@H]1CN(c2cccnn2)CC[C@@H]1c1cc(F)c(F)cc1F | 63 |
| N[C@H]1CN(c2ncccn2)CC[C@@H]1c1cc(F)c(F)cc1F | 90 |

====

The following compounds each carry a recorded IC50 for Dipeptidyl peptidase 2 (Homo sapiens, UniProt Q9UHL4).

| smiles_notation | value_comparator | IC50, µM |
| --- | --- | --- |
| N#Cc1ccc(N2CC[C@H](c3cc(F)c(F)cc3F)[C@@H](N)C2)nc1 | = | 40 |
| N[C@H]1CN(c2ncccn2)CC[C@@H]1c1cc(F)c(F)cc1F | = | 54 |
| N[C@H]1CN(c2cnc3cncnc3n2)CC[C@@H]1c1cc(F)c(F)cc1F | = | 87 |
| N[C@H]1CN(c2ccc3ncnc(C4CC4)c3n2)CC[C@@H]1c1cc(F)c(F)cc1F | = | 9.9 |
| Cc1cc(=O)n2nc(N3CC[C@H](c4cc(F)c(F)cc4F)[C@@H](N)C3)ccc2n1.O=C(O)C(F)(F)F | > | 100 |
| N[C@H]1CN(c2ccncc2)CC[C@@H]1c1cc(F)c(F)cc1F | = | 46 |
| N[C@H]1CN(c2cnc3cccnc3n2)CC[C@@H]1c1cc(F)c(F)cc1F | = | 58 |
| N[C@H]1CN(c2cccnn2)CC[C@@H]1c1cc(F)c(F)cc1F | > | 100 |
| N[C@H]1CN(c2cnc3nccnc3n2)CC[C@@H]1c1cc(F)c(F)cc1F.O=C(O)C(F)(F)F | = | 93 |
| N[C@H]1CN(c2ccccc2)CC[C@@H]1c1cc(F)c(F)cc1F | = | 5.5 |
| N[C@H]1CN(c2ccc3nc(C(F)(F)F)nn3n2)CC[C@@H]1c1cc(F)c(F)cc1F | > | 100 |
